Origin of the recorded values: ChEMBL document CHEMBL2434950

- METHOD: Non-competitive inhibition of mitochondrial Trypanosoma cruzi SQS
RECORDED_ENDPOINT: pKi
In plain terms, pKi is the concentration in mol/L turned into minus its base-10 logarithm.

Give its pKi value. Item: N#CSCCOc1ccc(Oc2ccccc2)cc1
6.89

----------
I'd appreciate it if you could supply EC50 values for the items below.
- System: Trypanosoma cruzi
- METHOD: Antiparasitic activity against Trypanosoma cruzi amastigotes after 3 days by fluorescence assay
- Type: functional
- EXPERIMENTAL_CONDITIONS: 72 h, read-out: ED50 (the source's name)
Use µM as the unit, but write only the number.

Give its EC50 value. Item: COc1ccc(Oc2cccc(OCCSC#N)c2)cc1
10.1

Another compound to check: N#CSCCOc1ccc(Oc2cccnc2)cc1
7.4

Another compound to check: N#CSCCOc1ccc(Oc2cccc([N+](=O)[O-])c2)cc1
5.2

Another compound to check: O=C(Cn1ccnc1[N+](=O)[O-])NCc1ccccc1
1.75

Another compound to check: COc1ccc(Oc2ccc(OCCSC#N)cc2)cc1
6.1

Another compound to check: COc1cccc(Oc2ccc(OCCSC#N)cc2)c1
4.5

Another compound to check: N#CSCCOc1ccc(Oc2ccccc2)cc1
5

Another compound to check: N#CSCCOc1cccc(Oc2ccccc2)c1
11.2
